target: LXRβ ligand-binding domain (Homo sapiens, UniProt P55055, DUP175-175); construct: amino acids 156-461; NP009052; made in house; host or cells: E. coli; assay: TR-FRETβ activity assay (NCoA3 coactivator peptide recruitment); assay type: biochemical; details: TR-FRET, 1 μM 24(S)-25-epoxycholesterol prestimulation; read-out: FRETβ (EC50 range)
pEC50: −log10 of the molar value.
observation type: pEC50

Before answering, review these 3 worked examples.
[
  {
    "molecule": "CN1CC(F)(c2ccccc2-c2c(-c3cccc(-c4ccc(C(=O)O)cc4Cl)c3)n(S(=O)(=O)c3ccc(C(F)F)cc3)c3ccc(F)cc23)C1",
    "pEC50": "6.00 to 7.00"
  },
  {
    "molecule": "O=C(O)c1ccc(-c2cccc(-c3c(-c4ccccc4C4(F)CNC4)c4cc(F)ccc4n3S(=O)(=O)c3ccc(C(F)F)cc3)c2)c(Cl)c1",
    "pEC50": "6.00 to 7.00"
  },
  {
    "molecule": "N#Cc1sccc1-c1c(-c2cccc(-c3cc(F)c(C(=O)O)cc3Cl)c2)n(S(=O)(=O)c2ccc(C(F)F)cc2)c2ccc(F)cc12",
    "pEC50": "> 7.00"
  }
]

Lab note: `N#Cc1cccc(C#N)c1-c1c(-c2cccc(-c3ccc(C(=O)O)cc3Cl)c2)n(S(=O)(=O)c2ccc(Cl)cc2)c2ccc(F)cc12` gave pEC50 of > 7.00

Lab note: N#Cc1sccc1-c1c(-c2cccc(C3CC3C(=O)O)c2)n(S(=O)(=O)c2ccc(Cl)cc2)c2ccccc12 (stereo not drawn) gave pEC50 of 5.00 to 6.00

Lab note: `N#Cc1sccc1-c1c(-c2cccc(-c3ccc(C(=O)O)cc3Cl)c2)n(S(=O)(=O)c2ccc(F)cc2)c2ccc(F)cc12` gave pEC50 of 6.00 to 7.00

* * *

Readings of EC50 for the listed molecules
Target: ligand-binding domain (LBD) of LXRα (Homo sapiens)
Construct: expressed in transfected cells; host or cells: HEK293
Test: LXR Gal4 reporter transient transfection assay (LBD-M2H Gal4α)
Type: cell-based
Settings: HEK293 cells, LXRα LBD; read-out: LBD-M2H Gal4α (EC50 range)
Procedure: The tested compounds were usually dissolved, tested and stored as 20 mM stock solutions in DMSO. […] LXRα and LXRβ activity status was determined via detection of interaction with coactivator and corepressor proteins in mammalian two-hybrid experiments (M2H). […] Interaction was monitored via activation of a coexpressed Firefly Luciferase Reporter gene under control of a promoter containing repetitive GAL4 response elements (vector pFRLuc; Stratagene). […]

Before answering, review these 3 worked examples.
[
  {
    "molecule": "N#Cc1sccc1-c1c(-c2cccc(CCCC(=O)O)c2)n(S(=O)(=O)c2ccc(Cl)cc2)c2ccccc12 [30/5]",
    "EC50": "0.1 to 1 µM"
  },
  {
    "molecule": "N#Cc1cc(F)ccc1-c1c(-c2cccs2)n(S(=O)(=O)c2ccc(Cl)cc2)c2ccccc12 [20/6]",
    "EC50": "0.1 to 1 µM"
  },
  {
    "molecule": "N#Cc1sccc1-c1c(-c2cccs2)n(S(=O)(=O)c2ccc(Cl)cc2)c2ccccc12 [20/13]",
    "EC50": "< 0.1 µM"
  }
]

Entry Cc1ccc(S(=O)(=O)n2c(-c3cccc(/C=C/C(=O)O)c3)c(-c3ccsc3C#N)c3ccccc32)cc1 [3/18] , tested on ligand-binding domain (LBD) of LXRα (Homo sapiens), has a reported EC50 of 0.1 to 1 µM

* * *

target: full length (FL) LXRα (Homo sapiens, UniProt Q13133); construct: the full length (FL) proteins of LXRα (amino acids 1-447); NP005684; expressed in transfected cells; host or cells: HEK293; test: LXR Gal4 reporter transient transfection assay (FL-M2H Gal4α); type: cell-based; conditions: HEK293 cells, full length LXRα; read-out: FL-M2H Gal4α (EC50 range)
Sequence (Q13133 whole entry, the tested form may be a part): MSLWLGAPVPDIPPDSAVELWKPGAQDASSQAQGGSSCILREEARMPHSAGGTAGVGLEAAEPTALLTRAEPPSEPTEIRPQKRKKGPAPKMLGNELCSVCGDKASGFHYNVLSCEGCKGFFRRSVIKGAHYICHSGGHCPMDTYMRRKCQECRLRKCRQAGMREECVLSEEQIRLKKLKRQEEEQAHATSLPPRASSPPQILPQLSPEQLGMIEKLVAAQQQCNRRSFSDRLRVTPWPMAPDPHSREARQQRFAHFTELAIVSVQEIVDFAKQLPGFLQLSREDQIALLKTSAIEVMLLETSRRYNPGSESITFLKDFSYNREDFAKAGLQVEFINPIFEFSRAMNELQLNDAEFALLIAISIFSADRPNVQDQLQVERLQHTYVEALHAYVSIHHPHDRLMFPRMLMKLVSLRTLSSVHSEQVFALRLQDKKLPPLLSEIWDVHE
observation type: EC50

Before answering, review these 4 worked examples.
[
  {
    "compound": "N#Cc1sccc1-c1c(-c2cccc(-c3ccc(C(=O)O)cc3Cl)c2)n(S(=O)(=O)c2ccc(Cl)cc2)c2ccc(F)cc12 [3/57]",
    "EC50": "< 100 nM"
  },
  {
    "compound": "O=C(O)c1ccc(-c2cccc(-c3c(-c4ccccc4)c4cc(F)ccc4n3S(=O)(=O)c3ccc(C(F)F)cc3)c2)c(Cl)c1 [C11/39, reference compound]",
    "EC50": "< 100 nM"
  },
  {
    "compound": "Cc1ccc(S(=O)(=O)n2c(-c3cccc(C4(C)CC4C(=O)O)c3)c(-c3ccsc3C#N)c3cc(F)ccc32)cc1 (stereo not shown) [3/2]",
    "EC50": "100 to 1000 nM"
  },
  {
    "compound": "COc1ccc(S(=O)(=O)n2c(-c3cccc(N4CC(C(=O)O)C4)c3)c(-c3ccsc3C#N)c3cc(F)ccc32)cc1 [3/33]",
    "EC50": "100 to 1000 nM"
  }
]

Lab note: Cc1ccc(S(=O)(=O)n2c(-c3cccc(N4CC(C(=O)O)C4)c3)c(-c3ccsc3C#N)c3sccc32)cc1 [4/3] gave EC50 of < 100 nM

Lab note: Cc1ccc(S(=O)(=O)n2c(-c3cccc(-c4ccc(C(=O)O)cc4Cl)c3)c(-c3cc(C)ccc3C#N)c3cc(F)ccc32)cc1 [11/5] gave EC50 of < 100 nM

Lab note: N#Cc1cccc(C#N)c1-c1c(-c2cccc(-c3c(F)cc(CC(=O)O)cc3F)c2)n(S(=O)(=O)c2ccc(C(F)F)cc2)c2ccc(F)cc12 [3/73] gave EC50 of < 100 nM

Lab note: Cc1ccc(S(=O)(=O)n2c(-c3cccc(N4CC(C(=O)O)C4)c3)c(-c3ccsc3C#N)c3cc(F)ccc32)cc1 [3/32] gave EC50 of 100 to 1000 nM

Lab note: Cc1cccc(C#N)c1-c1c(-c2cccc(-c3ccc(C(=O)O)cc3Cl)c2)n(S(=O)(=O)c2ccc(C(F)F)cc2)c2ccc(F)cc12 (single isomer, unassigned) [41/1] gave EC50 of < 100 nM

Lab note: N#Cc1cccc(C#N)c1-c1c(-c2cccc(-c3ccc(C(=O)O)cc3Cl)c2)n(S(=O)(=O)c2ccc(C(F)F)cc2)c2ccccc12 [11/56] gave EC50 of < 100 nM

Lab note: N#Cc1cccc(C#N)c1-c1c(-c2cccc(-c3ccc(C(=O)O)cc3Cl)c2)n(S(=O)(=O)c2ccc(C(F)F)cc2)c2cnc(O)cc12 [3/70] gave EC50 of 100 to 1000 nM

Lab note: COc1cc(-c2cccc(-c3c(-c4ccsc4C#N)c4cc(F)ccc4n3S(=O)(=O)c3ccc(C)cc3)c2)c(Cl)cc1C(=O)O [12/4] gave EC50 of < 100 nM

Lab note: Cc1ccc(S(=O)(=O)n2c(-c3cccc(-c4ccc(C(=O)O)c(C)c4Cl)c3)c(-c3ccsc3C#N)c3cc(F)ccc32)cc1 [12/1] gave EC50 of < 100 nM

* * *

target: ligand-binding domain (LBD) of LXRα (Homo sapiens, UniProt Q13133); construct: expressed in transfected cells; host or cells: HEK293; assay: LXR Gal4 reporter transient transfection assay (LBD-M2H Gal4α); type: cell-based; conditions: HEK293 cells; read-out: LBD-M2H Gal4α potency
Sequence (Q13133 155-447): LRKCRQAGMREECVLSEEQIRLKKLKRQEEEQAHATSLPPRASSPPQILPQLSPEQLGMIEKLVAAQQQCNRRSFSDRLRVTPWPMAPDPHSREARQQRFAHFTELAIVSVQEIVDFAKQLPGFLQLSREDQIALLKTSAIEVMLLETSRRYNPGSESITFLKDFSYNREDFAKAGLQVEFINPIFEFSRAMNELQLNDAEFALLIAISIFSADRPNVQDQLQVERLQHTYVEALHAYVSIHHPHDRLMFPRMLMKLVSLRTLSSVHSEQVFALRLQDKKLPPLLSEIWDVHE
observation type: EC50

Lab note: `Cc1ccc(S(=O)(=O)n2c(-c3cccc(N4CC(C(=O)O)C4)c3)c(-c3ccsc3C#N)c3cc(F)ccc32)cc1` gave EC50 of 106 nM

* * *

Readings of EC50 for the listed compounds
Target: LXRβ ligand-binding domain (Homo sapiens, UniProt P55055, DUP175-175)
Construct: amino acids 156-461; NP009052; made in house; host or cells: E. coli
Sequence (P55055 with tags, fused parts or gaps DUP175-175 limits assumed): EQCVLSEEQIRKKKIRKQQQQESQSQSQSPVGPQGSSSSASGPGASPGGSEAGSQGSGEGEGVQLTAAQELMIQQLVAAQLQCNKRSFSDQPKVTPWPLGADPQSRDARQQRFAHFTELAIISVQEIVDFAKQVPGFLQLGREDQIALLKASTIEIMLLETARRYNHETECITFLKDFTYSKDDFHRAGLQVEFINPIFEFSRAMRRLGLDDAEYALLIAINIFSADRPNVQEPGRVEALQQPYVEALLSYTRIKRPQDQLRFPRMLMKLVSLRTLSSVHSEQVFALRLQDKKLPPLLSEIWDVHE
Test: TR-FRETβ activity assay (NCoA3 coactivator peptide recruitment)
Type: biochemical
Conditions: TR-FRET, 1 μM 24(S)-25-epoxycholesterol prestimulation; read-out: FRETβ (EC50 range)

Before answering, review these 3 worked examples.
[
  {
    "compound": "Cc1ccc(S(=O)(=O)n2c(-c3cccc(N4CC(C(=O)O)C4)c3)c(-c3ccsc3C#N)c3cc(F)ccc32)cc1 [3/32]",
    "observed value": "100 to 1000 nM"
  },
  {
    "compound": "N#Cc1cccc(C#N)c1-c1c(-c2cccc([C@H]3CC[C@@H](C(=O)O)CC3)c2)n(S(=O)(=O)c2ccc(C(F)F)cc2)c2ccc(F)cc12 [11/61]",
    "observed value": "100 to 1000 nM"
  },
  {
    "compound": "O=C(O)c1ccc(-c2cccc(-c3c(-c4ncccc4N4CC(O)C4)c4cc(F)ccc4n3S(=O)(=O)c3ccc(C(F)F)cc3)c2)c(Cl)c1 [5/10]",
    "observed value": "1000 to 10000 nM"
  }
]

Lab note: COc1ccc2c(c1)c(-c1ccsc1C#N)c(-c1cccs1)n2S(=O)(=O)c1ccc(Cl)cc1 [1/39] gave EC50 of > 10000 nM

Lab note: Cc1ccc(S(=O)(=O)n2c(-c3cccc(-c4ccc(C(=O)O)cc4Cl)c3)c(-c3c(C)cccc3C#N)c3cc(F)ccc32)cc1 [11/6] gave EC50 of < 100 nM

Lab note: Cc1ccc(S(=O)(=O)n2c(-c3cccc(C4CC4C(=O)O)c3)c(-c3ccsc3C#N)c3ccncc32)cc1 (centres unmarked) [4/1] gave EC50 of 1000 to 10000 nM

Lab note: Cc1ccc(S(=O)(=O)n2c(-c3cccc(C4CC4C(=O)O)c3)c(-c3ccsc3C#N)c3ccccc32)cc1 (racemic) [Example 30] gave EC50 of 100 to 1000 nM

Lab note: COC(=O)CCc1ccc(S(=O)(=O)n2c(-c3cccs3)c(-c3ccsc3C#N)c3ccccc32)cc1 [20/15] gave EC50 of 100 to 1000 nM

Lab note: Cc1ccc(S(=O)(=O)n2c(-c3cccc(N4CC(C(=O)O)C4)c3)c(-c3ccsc3C#N)c3cc(F)c(Cl)cc32)cc1 [3/43] gave EC50 of 1000 to 10000 nM

Lab note: Cc1ccc(S(=O)(=O)n2c(-c3cccc(-c4cncc(S(=O)(=O)CC(=O)O)c4)c3)c(-c3ccsc3C#N)c3ccccc32)cc1 [Example 5] gave EC50 of 100 to 1000 nM

Lab note: N#Cc1ccc(OCC(=O)O)cc1-c1c(-c2cccs2)n(S(=O)(=O)c2ccc(Cl)cc2)c2ccccc12 [21/1] gave EC50 of 1000 to 10000 nM

Lab note: N#Cc1sccc1-c1c(-c2ccccc2)n(S(=O)(=O)c2ccc(Cl)cc2)c2ccccc12 [Example 26] gave EC50 of 100 to 1000 nM

Lab note: CS(=O)(=O)NC(=O)c1ccc(-c2cccc(-c3c(-c4c(C#N)cccc4C#N)c4cc(F)ccc4n3S(=O)(=O)c3ccc(C(F)F)cc3)c2)c(Cl)c1 [32/5] gave EC50 of < 100 nM

Lab note: N#Cc1cccc(C#N)c1-c1c(-c2cccc(-c3cc(F)c(C(=O)O)cc3Cl)c2)n(S(=O)(=O)c2ccc(C(F)F)cc2)c2ccc(F)cc12 [11/65] gave EC50 of < 100 nM
